Test system: CCRF-CEM
experimentSummary: NCI tumour cell line growth inhibition, 48 h
The source made the active and inactive calls. Cut-off read from the data, not from the text of the source: active = GI50 up to about 1.1 µM and inactive = higher.
Parameter call: string, one of 1 (yes) for active, 0 (no) for inactive

compound	cat
CC1=C(C(=O)N[C@@H](Cc2ccccc2)C(=O)O)N2C(=O)[C@@H](NC(=O)[C@@H](N)CC(C)C)[C@H]2SC1	0 (no)
COc1ccc(C2=NNC(c3cc4cc(Br)ccc4nc3Cl)C2)cc1 (stereo not given)	1 (yes)
COc1cc(N2C(=O)C(=O)C3(CCCCC3)C2=O)cc(OC)c1OC	0 (no)

Please share the test call associated with "O=C(O)CCSC1=NCCN1" . 0 (no)

Please share the test call associated with "CC(=O)c1c2c(cc3c1CC1(C3)Cc3cc4c(c(C(C)=O)c3C1)CCCC4)CCCC2" . 0 (no)

Please share the test call associated with "Cc1cc(NS(=O)(=O)c2ccc(NC(=O)c3cccn4c(=O)c5ccccc5nc34)cc2)no1" . 0 (no)

Please share the test call associated with "COc1ccc2c(c1)[nH]c1c(/C=C/c3ccccc3)nccc12" . 0 (no)

----------
Test system: MCF7
experimentSummary: NCI tumour cell line growth inhibition, 48 h
Calls of active or inactive are those of the source. No stated cut-off is given here; in the data, active = GI50 up to about 1.1 µM and inactive = higher. Bridge positions count the residues as written; N and C are the ends. Peptide text beside a SMILES is read from it. * marks the point of attachment. Cbz = O=C(OCc1ccccc1)*
GI50 reference

Fill in: GI50 of CNC(=O)C1CCCCNC(=O)CCC(NC(=O)OCc2ccccc2)C(=O)N1 (stereo not drawn) (Cbz-Glu-Lys-NHMe; lactam 1-2; configuration not given here) is ___ > 100 µM (inactive)

Fill in: GI50 of "Cc1ccc(S(=O)(=O)NC(=O)NS(=O)(=O)O)cc1" is ___ > 100 µM (inactive)

Fill in: GI50 of "O=C1Cc2cc3ccccc3nc2-c2ccccc2N1" is ___ 49 µM (inactive)

Fill in: GI50 of O=C1CC(c2cccc(Br)c2)n2cccc21 (stereo not given) is ___ 86.9 µM (inactive)

Fill in: GI50 of CCOC(=O)CCC(C(=O)OCC)n1nnc2ccc(Nc3c(C)[n+]([O-])c4cc(F)c(OCC)cc4[n+]3[O-])cc21 (stereo not given) is ___ 22.5 µM (inactive)

Fill in: GI50 of "O=C1NC(N2CCOCC2)=N/C1=C\c1ccccc1" is ___ > 100 µM (inactive)

Fill in: GI50 of "O=C(Nc1nc(C23CC4CC(CC(C4)C2)C3)cs1)c1cc2ccc(O)cc2oc1=O" is ___ 14.1 µM (inactive)

Fill in: GI50 of CC(=O)OC1COC(Nc2nc(N)n(C)c(=O)c2N=O)C(OC(C)=O)C1OC(C)=O (stereo not given) is ___ > 10 µM (inactive)

Fill in: GI50 of COC(=O)/C=C\[C@H]1[C@H](C)N1S(=O)(=O)c1ccc(C)cc1 (stereo not given in full) is ___ > 100 µM (inactive)

Fill in: GI50 of "c1cc(C[S+]2CCCC2)ccc1C[S+]1CCCC1" is ___ > 100 µM (inactive)

----------
GI50 reference
Test system: NCI-H460
experimentSummary: NCI tumour cell line growth inhibition, 48 h
Calls of active or inactive are those of the source. Rule as the data show it: active = GI50 up to about 1.1 µM and inactive = higher.

molecule	GI50
ClCCCCCc1c2nc(c(CCCCCCl)c3ccc([nH]3)c(CCCCCCl)c3nc(c(CCCCCCl)c4ccc1[nH]4)C=C3)C=C2	> 100 µM (inactive)
COc1cc2cc(C(=O)Nc3cc4n(n3)-c3ccccc3C4)[nH]c2c(OC)c1OC	1.64 µM (inactive)
CCc1nnc(-n2c(C)nc3cc(Cl)ccc3c2=O)s1	40.5 µM (inactive)

Return GI50 measured with NCI-H460 given this molecule: "CCN(CCCl)c1cccc(NC(=O)c2ccc(C(=O)Nc3cccc(CN(C)C)c3)cc2)c1" 0.0537 µM (active)

Return GI50 measured with NCI-H460 given this molecule: "O=S1(=O)N=C(SCc2ccccc2)N(c2ccccc2)c2ccncc21" 28.8 µM (inactive)

Return GI50 measured with NCI-H460 given this molecule: "CC1=C(c2cc(C(=O)Nc3ccc(Cl)c(Cl)c3)nc(N)n2)Sc2ccccc2N1" > 100 µM (inactive)

Return GI50 measured with NCI-H460 given this molecule: "Cc1c2ccc3ccccc3c2c[n+]2ccccc12" 10.7 µM (inactive)

Return GI50 measured with NCI-H460 given this molecule: COc1cccc2c1C(=O)c1c(O)c3c(c(O)c1C2=O)C[C@@](O)(C(=O)CO)CC3OC1CC(NCCCCC(OC(C)=O)OC(C)=O)C(O)C(C)O1 (some centres undefined) 0.00115 µM (active)

Return GI50 measured with NCI-H460 given this molecule: "CSC(SC)=C1CC(=O)Nc2ccccc2C1=O" > 100 µM (inactive)
